# assayNotes: Retention time of the compound using 0.1% TFA in water and 0.1% TFA in acetonitrile-water (80:20 v/v) as eluents by RP-HPLC analysis
# Type: physicochemical
Where a SMILES comes first, the peptide text is derived from it. The star is where a group is joined. X1 = COc1cccc2c1C(=O)c1c(O)c3c(c(O)c1C2=O)C[C@@](O)(/C(C)=N/OCC(=O)*)C[C@@H]3O[C@H]1C[C@H](N)[C@H](O)[C@H](C)O1
measuredQuantity: Retention time

## Task Please supply the value of reported Retention time for the item COc1cccc2c1C(=O)c1c(O)c3c(c(O)c1C2=O)C[C@@](O)(/C(C)=N/OCC(=O)N[C@@H](CC(C)C)C(=O)N[C@@H](CCCNC(=N)N)C(=O)N[C@@H](CCCNC(=N)N)C(=O)N[C@@H](Cc1ccc(O)cc1)C(=O)N[C@H](C(=O)N[C@@H](C)C(=O)N[C@@H](CC(C)C)C(=O)NCC(=O)N[C@@H](Cc1ccc(O)cc1)C(=O)N[C@@H](C)C(=O)N[C@H](C(N)=O)[C@@H](C)O)C(C)C)C[C@@H]3O[C@H]1C[C@H](N)[C@H](O)[C@H](C)O1 (X1-LRRYVALGYAT-NH2)
## Result 29 to 31.7 min

---

# Tested on: HT-29
# assayNotes: Cytostatic activity against human HT-29 cells preincubated for 24 hrs under serum free condition followed by compound washout and further incubation for 48 hrs in presence of serum by MTT assay
# Type: functional, cell-based
Where a SMILES comes first, the peptide text is derived from it. The star is where a group is joined. X1 = COc1cccc2c1C(=O)c1c(O)c3c(c(O)c1C2=O)C[C@@](O)(/C(C)=N/OCC(=O)*)C[C@@H]3O[C@H]1C[C@H](N)[C@H](O)[C@H](C)O1
Mark true (1) only for IC50 values smaller than 20 µM; exact matches and larger values are false (0).

## Task Field: below-cutoff. Rule: recorded IC50 strictly less than 20 µM. Subject: COc1cccc2c1C(=O)c1c(O)c3c(c(O)c1C2=O)C[C@@](O)(/C(C)=N/OCC(=O)N[C@@H](CC(C)C)C(=O)N[C@@H](CCCNC(=N)N)C(=O)N[C@@H](CCCNC(=N)N)C(=O)N[C@@H](Cc1ccc(O)cc1)C(=O)N[C@H](C(=O)N[C@@H](Cc1cnc[nH]1)C(=O)N[C@@H](CC(C)C)C(=O)N[C@@H](Cc1ccccc1)C(=O)N[C@@H](Cc1ccc(O)cc1)C(=O)N[C@@H](CC(N)=O)C(=O)N[C@H](C(N)=O)[C@@H](C)O)C(C)C)C[C@@H]3O[C@H]1C[C@H](N)[C@H](O)[C@H](C)O1 (X1-LRRYVHLFYNT-NH2)
## Result true (1)

## Task Field: below-cutoff. Rule: recorded IC50 strictly less than 20 µM. Subject: COc1cccc2c1C(=O)c1c(O)c3c(c(O)c1C2=O)C[C@@](O)(/C(C)=N/OCC(=O)N[C@@H](CC(C)C)C(=O)N[C@@H](CCCNC(=N)N)C(=O)N[C@@H](CCCNC(=N)N)C(=O)N[C@@H](Cc1ccc(O)cc1)C(=O)N[C@@H](C)C(=O)N[C@@H](Cc1cnc[nH]1)C(=O)N[C@@H](CC(C)C)C(=O)NCC(=O)N[C@@H](Cc1ccc(O)cc1)C(=O)N[C@@H](C)C(=O)N[C@H](C(N)=O)[C@@H](C)O)C[C@@H]3O[C@H]1C[C@H](N)[C@H](O)[C@H](C)O1 (X1-LRRYAHLGYAT-NH2)
## Result false (0)

## Task Field: below-cutoff. Rule: recorded IC50 strictly less than 20 µM. Subject: COc1cccc2c1C(=O)c1c(O)c3c(c(O)c1C2=O)C[C@@](O)(/C(C)=N/OCC(=O)N[C@@H](CC(C)C)C(=O)N[C@@H](CCCNC(=N)N)C(=O)N[C@@H](CCCNC(=N)N)C(=O)N[C@@H](Cc1ccc(O)cc1)C(=O)N[C@H](C(=O)N[C@@H](Cc1cnc[nH]1)C(=O)N[C@@H](CC(C)C)C(=O)N[C@@H](CC(C)C)C(=O)N[C@@H](Cc1ccc(O)cc1)C(=O)N[C@@H](C)C(=O)N[C@H](C(N)=O)[C@@H](C)O)C(C)C)C[C@@H]3O[C@H]1C[C@H](N)[C@H](O)[C@H](C)O1 (X1-LRRYVHLLYAT-NH2)
## Result true (1)

## Task Field: below-cutoff. Rule: recorded IC50 strictly less than 20 µM. Subject: COc1cccc2c1C(=O)c1c(O)c3c(c(O)c1C2=O)C[C@@](O)(/C(C)=N/OCC(=O)N[C@@H](CC(C)C)C(=O)N[C@@H](CCCNC(=N)N)C(=O)N[C@@H](CCCNC(=N)N)C(=O)N[C@@H](Cc1ccc(O)cc1)C(=O)N[C@H](C(=O)N[C@@H](Cc1cnc[nH]1)C(=O)N[C@@H](CC(C)C)C(=O)N[C@@H](Cc1ccc(O)cc1)C(=O)N[C@@H](Cc1ccc(O)cc1)C(=O)N[C@@H](C)C(=O)N[C@H](C(N)=O)[C@@H](C)O)C(C)C)C[C@@H]3O[C@H]1C[C@H](N)[C@H](O)[C@H](C)O1 (X1-LRRYVHLYYAT-NH2)
## Result false (0)

## Task Field: below-cutoff. Rule: recorded IC50 strictly less than 20 µM. Subject: COc1cccc2c1C(=O)c1c(O)c3c(c(O)c1C2=O)C[C@@](O)(/C(C)=N/OCC(=O)N[C@@H](CC(C)C)C(=O)N[C@@H](CCCNC(=N)N)C(=O)N[C@@H](CCCNC(=N)N)C(=O)N[C@@H](Cc1ccc(O)cc1)C(=O)N[C@H](C(=O)N[C@@H](Cc1cnc[nH]1)C(=O)N[C@@H](CC(C)C)C(=O)N[C@@H](Cc1ccccc1)C(=O)N[C@@H](Cc1ccc(O)cc1)C(=O)N1CCC[C@H]1C(=O)N[C@H](C(N)=O)[C@@H](C)O)C(C)C)C[C@@H]3O[C@H]1C[C@H](N)[C@H](O)[C@H](C)O1 (X1-LRRYVHLFYPT-NH2)
## Result true (1)

## Task Field: below-cutoff. Rule: recorded IC50 strictly less than 20 µM. Subject: COc1cccc2c1C(=O)c1c(O)c3c(c(O)c1C2=O)C[C@@](O)(/C(C)=N/OCC(=O)N[C@@H](CC(C)C)C(=O)N[C@@H](CCCNC(=N)N)C(=O)N[C@@H](CCCNC(=N)N)C(=O)N[C@@H](Cc1ccc(O)cc1)C(=O)N[C@H](C(=O)N[C@@H](Cc1cnc[nH]1)C(=O)N[C@@H](CC(C)C)C(=O)N[C@@H](CC(N)=O)C(=O)N[C@@H](Cc1ccc(O)cc1)C(=O)N[C@@H](C)C(=O)N[C@H](C(N)=O)[C@@H](C)O)C(C)C)C[C@@H]3O[C@H]1C[C@H](N)[C@H](O)[C@H](C)O1 (X1-LRRYVHLNYAT-NH2)
## Result false (0)

## Task Field: below-cutoff. Rule: recorded IC50 strictly less than 20 µM. Subject: COc1cccc2c1C(=O)c1c(O)c3c(c(O)c1C2=O)C[C@@](O)(/C(C)=N/OCC(=O)N[C@@H](CC(C)C)C(=O)N[C@@H](CCCNC(=N)N)C(=O)N[C@@H](CCCNC(=N)N)C(=O)N[C@@H](Cc1ccc(O)cc1)C(=O)N[C@H](C(=O)N[C@@H](Cc1cnc[nH]1)C(=O)N[C@@H](CC(C)C)C(=O)N1CCC[C@H]1C(=O)N[C@@H](Cc1ccc(O)cc1)C(=O)N[C@@H](C)C(=O)N[C@H](C(N)=O)[C@@H](C)O)C(C)C)C[C@@H]3O[C@H]1C[C@H](N)[C@H](O)[C@H](C)O1 (X1-LRRYVHLPYAT-NH2)
## Result false (0)
